System: CD34^+CD38^− cells
Assay: Expansion of CD34+CD38− cells from human cord blood-derived CD34+ cells (Example 2)
Type: cell-based
Settings: Homo sapiens, 168 h, 1 μg/mL compound, 50 ng/mL SCF, StemSpan SFEM, 7 days; based on number of CD34+CD38− cells in the absence of compound; read-out: Expansion efficiency
The compounds listed here are annotated with their fold induction at 1 µg/mL.
experimental_endpoint: fold induction at 1 µg/mL

[[record]]
mol_smiles = "C/C(=N\\NC(=O)c1ccc(C(=O)NCc2cc(C)n(C)n2)s1)c1csc(-c2ccc(Cl)c(Cl)c2)c1O"
observed = "≥ 10"

[[record]]
mol_smiles = "C/C(=N\\NC(=O)c1ccc(C(=O)NCc2cccs2)s1)c1csc(-c2cccc(Cl)c2)c1O"
observed = "5 to 10"

[[record]]
mol_smiles = "C/C(=N\\NC(=O)c1ccc(C(=O)NCc2cnn(C)n2)s1)c1csc(-c2ccc(Cl)c(Cl)c2)c1O"
observed = "5 to 10"

[[record]]
mol_smiles = "C/C(=N\\NC(=O)c1ccc(C(=O)NCCCN(C)C)s1)c1csc(-c2ccc(Cl)c(Cl)c2)c1O"
observed = "3 to 5"

[[record]]
mol_smiles = "C/C(=N\\NC(=O)c1ccc(C(=O)NCCN(C)C)s1)c1csc(-c2ccc(Cl)c(Cl)c2)c1O"
observed = "3 to 5"

[[record]]
mol_smiles = "COc1cc(CNC(=O)c2ccc(C(=O)N/N=C(\\C)c3csc(-c4ccc(Cl)cc4)c3O)s2)on1"
observed = "≥ 10"

[[record]]
mol_smiles = "CNC(=O)c1ccc(CNC(=O)c2ccc(C(=O)N/N=C(\\C)c3csc(-c4ccc(OC(F)(F)F)cc4)c3O)s2)cc1"
observed = "≥ 10"


----------
Test system: CD34^+CD38^− cells
Assay: Expansion of CD34+CD38− cells from human cord blood-derived CD34+ cells (Example 2)
Assay type: cell-based
Conditions: Homo sapiens, 168 h, 1 μg/mL compound, 50 ng/mL SCF, StemSpan SFEM, 7 days; based on number of CD34+CD38− cells in the absence of compound; read-out: Expansion efficiency
The compounds listed here are annotated with their fold induction at 1 µg/mL.
experimental_endpoint: fold induction at 1 µg/mL

[[record]]
compound = "C/C(=N\\NC(=O)c1ccc(C(=O)NCc2cnccn2)s1)c1csc(-c2ccc(Cl)c(Cl)c2)c1O"
target_entity = "CD34^+CD38^− cells"
experimental_endpoint = "fold induction at 1 µg/mL"
observed = "≥ 10"

[[record]]
compound = "C/C(=N\\NC(=O)c1ccc(C(=O)NCc2ccc(C(N)=O)cc2)s1)c1csc(-c2ccc(Cl)c(Cl)c2)c1O"
target_entity = "CD34^+CD38^− cells"
experimental_endpoint = "fold induction at 1 µg/mL"
observed = "≥ 10"

[[record]]
compound = "C/C(=N\\NC(=O)c1ccc(C(=O)NCc2c(C)nn(C)c2C)s1)c1csc(-c2ccc(C(F)(F)F)cc2)c1O"
target_entity = "CD34^+CD38^− cells"
experimental_endpoint = "fold induction at 1 µg/mL"
observed = "5 to 10"

[[record]]
compound = "CC(=O)Nc1ccc(C(C)NC(=O)c2ccc(C(=O)N/N=C(\\C)c3csc(-c4ccc(Cl)cc4)c3O)s2)cc1 (stereo not shown)"
target_entity = "CD34^+CD38^− cells"
experimental_endpoint = "fold induction at 1 µg/mL"
observed = "≥ 10"

[[record]]
compound = "C/C(=N\\NC(=O)c1ccc(C(=O)NCCN2CCOCC2)s1)c1csc(-c2ccc(OC(F)(F)F)cc2)c1O"
target_entity = "CD34^+CD38^− cells"
experimental_endpoint = "fold induction at 1 µg/mL"
observed = "≥ 10"

[[record]]
compound = "C/C(=N\\NC(=O)c1ccc(C(=O)NCc2cccc(C(N)=O)c2)s1)c1csc(-c2ccc(C(C)(C)C)cc2)c1O"
target_entity = "CD34^+CD38^− cells"
experimental_endpoint = "fold induction at 1 µg/mL"
observed = "≥ 10"

[[record]]
compound = "CNC(=O)c1ccc(CNC(=O)c2ccc(C(=O)N/N=C(\\C)c3csc(-c4ccc(C(C)(C)C)cc4)c3O)s2)cc1"
target_entity = "CD34^+CD38^− cells"
experimental_endpoint = "fold induction at 1 µg/mL"
observed = "≥ 10"

[[record]]
compound = "C/C(=N\\NC(=O)c1ccc(C(=O)NCc2cccc(C(N)=O)c2)s1)c1csc(-c2ccc(Cl)c(Cl)c2)c1O"
target_entity = "CD34^+CD38^− cells"
experimental_endpoint = "fold induction at 1 µg/mL"
observed = "≥ 10"

[[record]]
compound = "C/C(=N\\NC(=O)c1ccc(C(=O)NCc2ccc(S(C)(=O)=O)cc2)s1)c1csc(-c2ccc(Cl)c(Cl)c2)c1O"
target_entity = "CD34^+CD38^− cells"
experimental_endpoint = "fold induction at 1 µg/mL"
observed = "5 to 10"

[[record]]
compound = "C/C(=N\\NC(=O)c1ccc(C(=O)NCCN2CCOCC2)s1)c1csc(-c2ccc(Br)cc2)c1O"
target_entity = "CD34^+CD38^− cells"
experimental_endpoint = "fold induction at 1 µg/mL"
observed = "3 to 5"

[[record]]
compound = "CCCNC(=O)c1ccc(C(=O)N/N=C(\\C)c2csc(-c3ccc(Cl)cc3)c2O)s1"
target_entity = "CD34^+CD38^− cells"
experimental_endpoint = "fold induction at 1 µg/mL"
observed = "≥ 10"

[[record]]
compound = "C/C(=N\\NC(=O)c1ccc(C(=O)NCc2cscn2)s1)c1csc(-c2ccc(Cl)c(Cl)c2)c1O"
target_entity = "CD34^+CD38^− cells"
experimental_endpoint = "fold induction at 1 µg/mL"
observed = "5 to 10"

[[record]]
compound = "C/C(=N\\NC(=O)c1ccc(C(=O)NCc2cc(C)n(C)n2)s1)c1csc(-c2ccc(OC(F)(F)F)cc2)c1O"
target_entity = "CD34^+CD38^− cells"
experimental_endpoint = "fold induction at 1 µg/mL"
observed = "≥ 10"

[[record]]
compound = "C/C(=N\\NC(=O)c1ccc(C(=O)NCc2cccc(C(N)=O)c2)s1)c1csc(-c2ccc(OC(F)(F)F)cc2)c1O"
target_entity = "CD34^+CD38^− cells"
experimental_endpoint = "fold induction at 1 µg/mL"
observed = "≥ 10"

[[record]]
compound = "CNC(=O)c1ccc(CNC(=O)c2ccc(C(=O)N/N=C(\\C)c3csc(-c4ccc(Br)cc4)c3O)s2)cc1"
target_entity = "CD34^+CD38^− cells"
experimental_endpoint = "fold induction at 1 µg/mL"
observed = "≥ 10"

[[record]]
compound = "C/C(=N\\NC(=O)c1ccc(C(=O)NCc2cc(C)on2)s1)c1csc(-c2ccc(C(F)(F)F)cc2)c1O"
target_entity = "CD34^+CD38^− cells"
experimental_endpoint = "fold induction at 1 µg/mL"
observed = "5 to 10"

[[record]]
compound = "COc1cc(CNC(=O)c2ccc(C(=O)N/N=C(\\C)c3csc(-c4ccc(C(F)(F)F)cc4)c3O)s2)on1"
target_entity = "CD34^+CD38^− cells"
experimental_endpoint = "fold induction at 1 µg/mL"
observed = "5 to 10"

[[record]]
compound = "C/C(=N\\NC(=O)c1ccc(C(=O)NCc2ccncc2)s1)c1csc(-c2ccc(Cl)c(Cl)c2)c1O"
target_entity = "CD34^+CD38^− cells"
experimental_endpoint = "fold induction at 1 µg/mL"
observed = "≥ 10"

[[record]]
compound = "C/C(=N\\NC(=O)c1ccc(C(=O)NCc2cn(C)cn2)s1)c1csc(-c2ccc(Cl)c(Cl)c2)c1O"
target_entity = "CD34^+CD38^− cells"
experimental_endpoint = "fold induction at 1 µg/mL"
observed = "≥ 10"

[[record]]
compound = "CC(=O)Nc1ccc(C(C)NC(=O)c2ccc(C(=O)N/N=C(\\C)c3csc(-c4ccc(Cl)c(Cl)c4)c3O)s2)cc1 (stereo not shown)"
target_entity = "CD34^+CD38^− cells"
experimental_endpoint = "fold induction at 1 µg/mL"
observed = "≥ 10"

[[record]]
compound = "C/C(=N\\NC(=O)c1ccc(C(=O)NCc2ccccc2C(N)=O)s1)c1csc(-c2ccc(OC(F)(F)F)cc2)c1O"
target_entity = "CD34^+CD38^− cells"
experimental_endpoint = "fold induction at 1 µg/mL"
observed = "≥ 10"

[[record]]
compound = "C/C(=N\\NC(=O)c1ccc(C(=O)Nc2cscn2)s1)c1csc(-c2ccc(Br)cc2)c1O"
target_entity = "CD34^+CD38^− cells"
experimental_endpoint = "fold induction at 1 µg/mL"
observed = "≥ 10"

[[record]]
compound = "CCCN(C)C(=O)c1ccc(C(=O)N/N=C(\\C)c2csc(-c3ccc(Cl)cc3)c2O)s1"
target_entity = "CD34^+CD38^− cells"
experimental_endpoint = "fold induction at 1 µg/mL"
observed = "3 to 5"

[[record]]
compound = "C/C(=N\\NC(=O)c1ccc(C(=O)NC(C)c2ccc(C(N)=O)cc2)s1)c1csc(-c2ccc(OC(F)(F)F)cc2)c1O (stereo not shown)"
target_entity = "CD34^+CD38^− cells"
experimental_endpoint = "fold induction at 1 µg/mL"
observed = "≥ 10"

[[record]]
compound = "COc1ccc(-c2scc(/C(C)=N/NC(=O)c3ccc(C(=O)NC(C)c4ccc(C(N)=O)cc4)s3)c2O)cc1 (stereo not shown)"
target_entity = "CD34^+CD38^− cells"
experimental_endpoint = "fold induction at 1 µg/mL"
observed = "≥ 10"

[[record]]
compound = "C/C(=N\\NC(=O)c1ccc(C(=O)NCc2cccc(C(N)=O)c2)s1)c1csc(-c2ccc(C(F)(F)F)cc2)c1O"
target_entity = "CD34^+CD38^− cells"
experimental_endpoint = "fold induction at 1 µg/mL"
observed = "≥ 10"

[[record]]
compound = "C/C(=N\\NC(=O)c1ccc(C(=O)N(C)Cc2ccccc2)s1)c1csc(-c2cccc(Cl)c2)c1O"
target_entity = "CD34^+CD38^− cells"
experimental_endpoint = "fold induction at 1 µg/mL"
observed = "3 to 5"

[[record]]
compound = "C/C(=N\\NC(=O)c1ccc(C(=O)NCc2cc(C)n(C)n2)s1)c1csc(-c2ccc(Cl)cc2)c1O"
target_entity = "CD34^+CD38^− cells"
experimental_endpoint = "fold induction at 1 µg/mL"
observed = "≥ 10"


Cited source: patent US9527828B2
